The measured values listed here are drawn from patent US10300155B2.

# test_system: α-synuclein fibrils (Homo sapiens)
# Construct: made in house; host or cells: E. coli BL21(DE3)RIL
# method: ThT competitive assay for α-synuclein fibrils (Table 1)
# Type: binding
# stated_conditions: α-synuclein fibrils; average; read-out: EC50 (nM) EC50 (avg)
Kindly supply the reported log10(EC50) values for the records listed here.
Transform log10 | Measure EC50 | Unit nM

# returns recorded log10(EC50) (system: α-synuclein fibrils (Homo sapiens)) for COc1ccc(/C=C/c2ccc(C(=O)NCCF)s2)cc1 [TZ-34-94]
2.62

Same lookup for COc1ccc2nc(/C=C/c3ccncc3Br)ccc2c1 [TZ-36-46] , please.
2.64

Cool, now COc1ccc(/C=C/c2cccs2)cc1 [TZ-34-26]
2.66

Subsequent entry: COc1ccc(/C=C/c2ccc(-c3cccs3)s2)cc1 [TZ-34-40]
3.07

Follow-up item: Fc1ccc2nc(/C=C/c3cnccn3)ccc2c1 [TZ-36-22]
2.46

Entry to check: COc1ccc2nc(/C=C/c3ccnc(F)c3)ccc2c1 [TZ-36-26-2T]
3.06

Same read-out for Fc1ccc(/C=C/c2cccs2)cc1 [TZ-34-60] ?
3.00

Likewise for COc1ccc2nc(/C=C/c3cccs3)ccc2c1 [TZ-36-50] ?
3.02

Same thing, different compound: Ic1ccc(/C=C/c2ccoc2)cc1 [TZ-34-86]
2.55

Also COc1ccc2nc(/C=C/c3ccnc(Cl)c3)ccc2c1 [TZ-36-42] , if possible.
2.15

What do you have for COCOc1ccc2nc(/C=C/c3ccnc(OC)c3)ccc2c1 [TZ-36-144] ?
2.04

Consider next the compound COc1ccc2nc(/C=C/c3ccc(Cl)nc3)ccc2c1 [TZ-36-38] in the same way.
2.00

Next entry: COc1ccc(/C=C/c2ccc(-c3cnc(C)s3)s2)cc1 [TZ-34-43]
2.55

Lookup COc1ccc(/C=C/c2ccc(CO)s2)cc1 [TZ-34-46]
2.45

Queued: COc1ccc2nc(/C=C/c3ccnc(OC)c3)ccc2c1 [TZ-36-28-2T]
2.13

====

What Ki was measured for each of the following?
# test_system: Aβ fibrils (Homo sapiens)
# Sequence (P05067 672-713 limits assumed): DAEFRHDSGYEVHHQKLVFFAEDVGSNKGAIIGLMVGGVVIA
# method: ThT competitive assay for Aβ fibrils (Table 2)
# Format: binding
# Parameters: made in house; host or cells: E. coli
# stated_conditions: individual determinations; read-out: Ki (nM) Aβ
Dear colleague, please return just the value in nM, with no unit written.

# input molecule: COc1ccc2nc(/C=C/c3ccnc(OC)c3)ccc2c1 [TZ-36-28-2T] ; wanted: its Ki
268

Similarly, COc1ccc(/C=C/c2cccs2)cc1 [TZ-34-26] ?
2500

What would you report for COc1ccc(/C=C/c2ccc(-c3cnc(C)s3)s2)cc1 [TZ-34-43] ?
320

====

# method: Biodistribution in male Balb/C mice
# Assay type: in vivo
# stated_conditions: 30 min post injection, tail vein; mean ± SD, n = 4
I'd appreciate it if you could supply Biodistribution: Blood values for the items below.
Unit % ID/g implied. Number only.

Given the compound COc1ccc(NC(=O)c2ccc(/C=C/c3ccncc3)cc2)cc1 [[^11C]TZ-20-83] , what is its reported Biodistribution: Blood?
1.59

And the next one, O=C(Nc1ccc(OCC[18F])cc1)c1ccc(/C=C/c2ccncc2)cc1 [[^18F]TZ-23-88] ?
2.30

What would you report for COC(=O)c1ccc(/C=C/c2ccncc2)cc1 [[^11C]TZ-20-35] ?
2.79

Field entry: O=C(Nc1ccc(OCCC[18F])cc1)c1ccc(/C=C/c2ccncc2)cc1 [[^18F]TZ-23-92]
2.42
